tgt: IRE1α (Homo sapiens)
Sequence (O75460 19-977): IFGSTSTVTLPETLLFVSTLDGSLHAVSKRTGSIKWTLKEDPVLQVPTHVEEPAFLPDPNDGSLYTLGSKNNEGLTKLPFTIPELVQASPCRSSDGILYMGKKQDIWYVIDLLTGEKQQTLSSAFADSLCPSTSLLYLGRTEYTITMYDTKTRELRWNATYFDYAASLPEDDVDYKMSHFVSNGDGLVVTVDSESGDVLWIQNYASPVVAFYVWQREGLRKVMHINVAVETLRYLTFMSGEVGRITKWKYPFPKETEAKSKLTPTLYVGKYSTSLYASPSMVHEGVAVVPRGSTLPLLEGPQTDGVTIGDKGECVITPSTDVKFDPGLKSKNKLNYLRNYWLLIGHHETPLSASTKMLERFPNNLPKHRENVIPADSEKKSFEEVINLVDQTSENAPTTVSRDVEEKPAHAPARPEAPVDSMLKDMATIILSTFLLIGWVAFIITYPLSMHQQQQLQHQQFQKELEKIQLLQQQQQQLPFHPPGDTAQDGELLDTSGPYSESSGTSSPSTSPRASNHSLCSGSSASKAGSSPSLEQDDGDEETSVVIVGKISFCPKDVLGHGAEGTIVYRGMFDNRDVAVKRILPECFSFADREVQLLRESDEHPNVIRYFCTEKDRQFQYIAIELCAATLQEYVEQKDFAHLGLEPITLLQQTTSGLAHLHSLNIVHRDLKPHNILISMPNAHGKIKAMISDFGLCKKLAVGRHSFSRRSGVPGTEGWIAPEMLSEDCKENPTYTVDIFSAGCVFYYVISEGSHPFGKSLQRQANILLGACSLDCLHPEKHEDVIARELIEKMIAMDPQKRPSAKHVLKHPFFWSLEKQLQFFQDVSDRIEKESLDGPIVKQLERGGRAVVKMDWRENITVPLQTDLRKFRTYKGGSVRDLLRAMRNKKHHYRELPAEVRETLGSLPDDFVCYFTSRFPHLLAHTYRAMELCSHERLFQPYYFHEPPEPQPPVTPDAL
experiment: In vitro FRET assay of IRE1α endoribonuclease activity (XBP1 RNA hairpin probe)
condition.parameters: SignalChem IRE1α protein 2 nM, fluorescence read over 30 minutes
property.name: EC50

CN1CCN(Cc2ccc(NC(=O)Nc3cc(C#Cc4ccc(N)cc4)n(C)n3)cc2C(F)(F)F)CC1    50 to 100 µM
CN1CCN(Cc2ccc(NC(=O)Nc3cc(C#Cc4cncn4C)n(C)n3)cc2C(F)(F)F)CC1    ≤ 5 µM
CN1CCN(Cc2ccc(NC(=O)Nc3cc(C#Cc4ccccn4)n(C)n3)cc2C(F)(F)F)CC1    ≤ 5 µM
Cn1nc(NC(=O)Nc2ccc(CN3CCOCC3)c(C(F)(F)F)c2)cc1C#Cc1ccc(N)nc1    5 to 50 µM
CN1CCN(Cc2ccc(NC(=O)Nc3cc(C#Cc4cnc5cnccn45)n(C)n3)cc2C(F)(F)F)CC1    ≤ 5 µM
CN1CCN(Cc2ccc(NC(=O)Nc3cc(C#Cc4cc[nH]c(=O)c4)n(C)n3)cc2C(F)(F)F)CC1    5 to 50 µM

For each entry beneath this line, provide reported EC50.
1. CN1CCN(Cc2ccc(NC(=O)Nc3cc(C#Cc4cc(N)[nH]n4)n(C)n3)cc2C(F)(F)F)CC1
2. CN1CCN(Cc2ccc(NC(=O)Nc3cc(C#Cc4cnccn4)n(C)n3)cc2C(F)(F)F)CC1

["≤ 5 µM", "≤ 5 µM"]

For each entry beneath this line, provide reported EC50.
1. CN1CCN(Cc2ccc(NC(=O)Nc3cc(C#Cc4ccncc4)n(C)n3)cc2C(F)(F)F)CC1
2. CN1CCN(Cc2ccc(NC(=O)Nc3cc(C#Cc4cncc5nccn45)n(C)n3)cc2C(F)(F)F)CC1
3. CN1CCN(Cc2ccc(NC(=O)Nc3cc(C#Cc4ccc(C#N)nc4)n(C)n3)cc2C(F)(F)F)CC1
4. CN1CCN(Cc2ccc(NC(=O)Nc3nnc(C#Cc4ccc(N)nc4)s3)cc2C(F)(F)F)CC1
5. Cn1nc(NC(=O)Nc2ccc(CN3CCN(CCO)CC3)c(C(F)(F)F)c2)cc1C#Cc1ccc(N)nc1
6. CN1CCN(Cc2ccc(NC(=O)Nc3cc(C#Cc4cccnc4)n(C)n3)cc2C(F)(F)F)CC1
7. CN1CCN(Cc2ccc(NC(=O)Nc3cc(C#Cc4cnc5cccnn45)n(C)n3)cc2C(F)(F)F)CC1

["≤ 5 µM", "≤ 5 µM", "≤ 5 µM", "≤ 5 µM", "≤ 5 µM", "≤ 5 µM", "≤ 5 µM"]

For each entry beneath this line, provide reported EC50.
1. CN1CCN(Cc2ccc(NC(=O)Nc3cc(C#Cc4cncc(N)c4)n(C)n3)cc2C(F)(F)F)CC1
2. CN1CCN(Cc2ccc(NC(=O)Nc3cc(C#Cc4ccnc(N)c4)n(C)n3)cc2C(F)(F)F)CC1

["≤ 5 µM", "5 to 50 µM"]
